system: MDA-N; assay: NCI tumour cell line growth inhibition, 48 h
Calls of active or inactive are those of the source. No stated cut-off is given here; in the data, active = GI50 up to about 1.1 µM and inactive = higher.
# output must be one of label 1 = active, label 0 = inactive

COMPOUND | CLASS LABEL
CC1(C)CCC[C@@]2(C)C1CC[C@@]1(CO)O[C@H](C3=CC(=O)OC3O)C[C@H]12 (stereo partly drawn) | label 0
CC1=CC(C)C(C)N(CC2=NCCN2)c2ccccc21 (stereo not drawn) | label 0
N#Cc1cc2c(cc1C#N)SCCSCCCSCCS2 | label 0
COc1ccc(N2C(=O)CSC2c2cc(OC)c(OC)c(OC)c2)cc1 (stereo not drawn) | label 0
O=C(Nn1c(-c2ccccc2)nc2ccccc2c1=O)c1ccc(CS)cc1 | label 0
C/C(=N\O)c1ccc(Nc2nc3ccccc3c3occc23)cc1 | label 0

Turning now to a further compound:
Inquiry: Please state the recorded outcome for this compound: CCn1c(-c2ccccc2)nc2c1C(=O)c1ccccc1C2=O
Reply text: label 0

====

test system: DU-145; assay: NCI tumour cell line growth inhibition, 48 h
Calls of active or inactive are those of the source. Rule as the data show it: active = GI50 up to about 1.1 µM and inactive = higher.
Overview of reported GI50 across a group of compounds:

COMPOUND | GI50
O=[N+]([O-])c1ccc2nc(Cl)n[n+]([O-])c2c1 | 17.9 µM (inactive)
CCC(=O)O[C@H]1CC[C@H]2[C@@H]3CCC4=C/C(=N/OC(=O)c5cccc6cc7ccccc7nc56)CC[C@]4(C)[C@H]3CC[C@]12C | > 100 µM (inactive)
COc1cc(C2c3cc4c(cc3OC(N3CCNCC3)C2C)OCO4)cc(OC)c1OC (stereo unspecified) | 0.594 µM (active)
CCOP(=O)(OCC)/C(C#N)=C/c1ncc[nH]1 | > 100 µM (inactive)
Clc1ccc(C2NN=C3c4ccccc4OCC32)cc1 (stereo unspecified) | 14.9 µM (inactive)
CC/C=C/C(=O)CC(O)(C(F)(F)F)C(F)(F)F | > 100 µM (inactive)
CC(=O)c1c2c(cc3c1CC1(Cc4cc5c(cc4C1)C(=O)CCC5)C3)CCCC2 (stereo unspecified) | 20.9 µM (inactive)
CC[C@H](O)[C@H](C)C=C1SCCCS1 | > 100 µM (inactive)

Record CN(C)CCCc1c[nH]c2ccccc12 / DU-145, GI50 recorded as > 100 µM (inactive)

Record COc1ccc(C2=NNC(=O)c3ccccc3N2c2nc(-c3cccs3)nc3ccc(Br)cc23)cc1 / DU-145, GI50 recorded as 39.9 µM (inactive)

Record O=C(NNC(=S)Nc1ccccc1)C12CC3CC(CC(C3)C1)C2 / DU-145, GI50 recorded as 28.6 µM (inactive)

Record COC1C(O)C(C)OC(OC2C(Oc3cccc4c(O)c5c(=O)oc6ccc(C)c7c(=O)oc(c34)c5c67)OC(C)C3O[C@H](c4ccccc4)OC32)C1O (stereo partly specified) / DU-145, GI50 recorded as 0.193 µM (active)

Record O=C1CSC(c2cc3cc(Br)ccc3nc2Cl)N1c1ccc(Cl)cc1 (stereo unspecified) / DU-145, GI50 recorded as 34.4 µM (inactive)

Record CN(CCO)Cc1ncccc1O / DU-145, GI50 recorded as > 100 µM (inactive)

Record [O-][S+]1SC(=S)C2C=CC=CC21 (stereo unspecified) / DU-145, GI50 recorded as > 100 µM (inactive)

Record O=c1oc2ccccc2cc1/C=N/N1C(=S)N(c2ccccc2)C(=N\c2ccccc2)/C1=N/c1ccccc1 / DU-145, GI50 recorded as > 100 µM (inactive)

Record C=CC[C@@H]1C=C[C@@H](C(=O)OC)n2c(=O)n(-c3ccccc3)c(=O)n21 / DU-145, GI50 recorded as > 100 µM (inactive)

Record O=C1C=CC2(O[C@H](C3CCCCC3)[C@@H](C3CCCCC3)O2)C(SC(=O)c2ccccc2)C1 (stereo partly specified) / DU-145, GI50 recorded as 2.44 µM (inactive)

Record COc1ccc2oc(=O)c(CC=C(C)C)c(O)c2c1C / DU-145, GI50 recorded as > 100 µM (inactive)

Record COc1cccc(N2N=C3c4ccccc4-n4c(nc5ccccc54)C3C2N)c1 (stereo unspecified) / DU-145, GI50 recorded as > 100 µM (inactive)

Record COc1c(O)c2ccccc2c2cc(O)ccc12 / DU-145, GI50 recorded as 8.22 µM (inactive)

Record Nc1c(-c2ccc(Cl)c(Cl)c2)c2ccc([N+](=O)[O-])cc2c(=O)n1-c1nc2ccccc2s1 / DU-145, GI50 recorded as 0.867 µM (active)
